target: human NaV 1.8 (Homo sapiens); assay: E-VIPR assay detecting and measuring NaV inhibition properties; assay type: cell-based; settings: HEK cells expressing truncated human NaV 1.8; no human serum; read-out: IC50 in the E-VIPR Assay
Item-by-item account of IC50

Look over these answered cases.
Ask: Given the compound COc1c([C@H]2[C@H](C(=O)Nc3ccc(-c4ncco4)nc3)O[C@@](C)(C(F)(F)F)[C@H]2C)ccc(F)c1F , what is its reported IC50?
Result: 10 to 100 nM

Ask: Input COc1c(C2C(C(=O)Nc3ccnc(S(C)(=N)=O)c3)OC(C)(C(F)(F)F)C2C)ccc(F)c1F (single isomer, unassigned) [Compound 53]
Result: 100 to 1000 nM

Ask: // next record COc1c(C2C(C(=O)Nc3cnnc(CO)c3)OC(C)(C(F)(F)F)C2C)ccc(F)c1F (stereo not drawn)
Result: < 10 nM

Ask: Then COc1c([C@H]2[C@H](C(=O)Nc3cnc(C(C)(C)O)nc3)O[C@@](C)(C(F)(F)F)[C@H]2C)ccc(F)c1F ?
Result: 10 to 100 nM

Next:
Ask: Any idea what its IC50 is? The compound is COc1c(C2C(C(=O)Nc3ccnc(C(O)CO)c3)OC(C)(C(F)(F)F)C2C)ccc(F)c1F (single isomer, unassigned) [Compound 46]
Result: < 10 nM

Ask: Likewise for COc1c([C@H]2[C@H](C(=O)Nc3ccc(C(=O)NC#N)nc3)O[C@@](C)(C(F)(F)F)[C@H]2C)ccc(F)c1F ?
Result: 100 to 1000 nM

###

biological target: human NaV 1.8 (Homo sapiens, UniProt Q9Y5Y9); experiment: E-VIPR assay detecting and measuring NaV inhibition properties; assay type: cell-based; conditions: HEK cells expressing truncated human NaV 1.8; no human serum; read-out: IC50 in the E-VIPR Assay
Sequence (Q9Y5Y9 126-399 limits assumed): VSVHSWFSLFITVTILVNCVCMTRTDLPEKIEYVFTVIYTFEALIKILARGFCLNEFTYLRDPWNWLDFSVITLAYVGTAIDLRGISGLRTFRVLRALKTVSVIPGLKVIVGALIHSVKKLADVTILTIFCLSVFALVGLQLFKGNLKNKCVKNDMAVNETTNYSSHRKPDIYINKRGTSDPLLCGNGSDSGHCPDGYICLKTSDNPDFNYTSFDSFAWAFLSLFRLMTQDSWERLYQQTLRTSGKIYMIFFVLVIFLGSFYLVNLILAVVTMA
Sequence (Q9Y5Y9 660-890 limits assumed): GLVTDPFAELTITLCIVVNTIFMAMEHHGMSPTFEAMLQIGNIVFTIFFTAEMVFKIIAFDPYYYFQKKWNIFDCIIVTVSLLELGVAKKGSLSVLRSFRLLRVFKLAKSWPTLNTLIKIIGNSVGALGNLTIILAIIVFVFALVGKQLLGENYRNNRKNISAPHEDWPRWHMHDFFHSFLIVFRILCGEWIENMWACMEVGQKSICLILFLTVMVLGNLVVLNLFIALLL
Sequence (Q9Y5Y9 1148-1722 limits assumed): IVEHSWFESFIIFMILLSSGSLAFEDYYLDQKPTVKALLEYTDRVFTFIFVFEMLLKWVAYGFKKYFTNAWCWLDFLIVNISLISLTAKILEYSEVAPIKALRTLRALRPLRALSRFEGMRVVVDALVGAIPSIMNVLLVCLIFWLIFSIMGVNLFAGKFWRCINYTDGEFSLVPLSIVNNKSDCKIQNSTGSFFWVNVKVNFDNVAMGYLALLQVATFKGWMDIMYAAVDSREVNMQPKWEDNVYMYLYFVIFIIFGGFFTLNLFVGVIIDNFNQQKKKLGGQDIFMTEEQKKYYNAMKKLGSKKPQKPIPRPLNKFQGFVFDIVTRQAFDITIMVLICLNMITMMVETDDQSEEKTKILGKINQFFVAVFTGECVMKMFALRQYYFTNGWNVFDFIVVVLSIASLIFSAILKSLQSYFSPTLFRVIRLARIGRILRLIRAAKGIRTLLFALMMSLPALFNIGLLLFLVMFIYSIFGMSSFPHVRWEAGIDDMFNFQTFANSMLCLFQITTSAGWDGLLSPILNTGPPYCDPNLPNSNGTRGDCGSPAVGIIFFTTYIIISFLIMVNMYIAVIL
metric name: IC50

// solved cases for IC50 follow
Ask: Which IC50 reading was recorded for the compound COc1c([C@H]2[C@H](C(=O)Nc3ccnc(N4CC[C@H](O)C4=O)c3)O[C@@](C)(C(F)(F)F)[C@H]2C)ccc(F)c1F ?
Result: 10 to 100 nM

Ask: Again, but for COc1c([C@H]2[C@H](C(=O)Nc3ccc(S(N)(=O)=O)nc3)O[C@@](C)(C(F)(F)F)[C@H]2C)ccc(F)c1F
Result: 10 to 100 nM

Ask: Check COc1c(C2C(C(=O)Nc3ccnc(C(=O)O)c3)OC(C)(C(F)(F)F)C2C)ccc(F)c1C(F)F (single isomer, unassigned) too.
Result: < 10 nM

Ask: For COc1c([C@H]2[C@H](C(=O)Nc3ccnc(N4C[C@@H](C)N(C)CC4=O)c3)O[C@@](C)(C(F)(F)F)[C@H]2C)ccc(F)c1F then?
Result: < 10 nM

Ask: Same for COc1c([C@H]2[C@H](C(=O)Nc3ccnc(C(C)(O)CO)c3)O[C@@](C)(C(F)(F)F)[C@H]2C)ccc(F)c1F (relative stereo) [Compound 3]
Result: < 10 nM

# evaluate next
Ask: So what's the measured IC50 for this one? C[C@@H]1[C@H](c2ccc(F)c(F)c2OC(F)F)[C@@H](C(=O)Nc2ccc(C(N)=O)cc2)O[C@]1(C)C(F)(F)F (stereo in doubt)
Result: ≥ 1000 nM

###

biological target: human NaV 1.8 (Homo sapiens); assay: E-VIPR assay detecting and measuring NaV inhibition properties; format: cell-based; details: HEK cells expressing truncated human NaV 1.8; no human serum; read-out: IC50 in the E-VIPR Assay
Measured IC50, listed per entry.

Worked examples follow.
Ask: What reported IC50 corresponds to COc1c([C@H]2[C@H](C(=O)Nc3ccnc(N4C[C@H]5CC[C@@H](C4=O)N5C)c3)O[C@@](C)(C(F)(F)F)[C@H]2C)ccc(F)c1F (single isomer, unassigned) [Compound 503] on human NaV 1.8 (Homo sapiens)?
Result: < 10 nM

Ask: Could you do the same for COc1c([C@H]2[C@H](C(=O)Nc3ccnc(OC(F)F)c3)O[C@@](C)(C(F)(F)F)[C@H]2C)ccc(F)c1F [Compound 189] , please?
Result: 10 to 100 nM

The record that follows has no IC50 shown yet.
Ask: Observed IC50 on human NaV 1.8 (Homo sapiens) for C[C@H]1[C@@H](c2ccc(F)c(F)c2OCCN2CC3(COC3)C2)[C@H](C(=O)Nc2cccnc2)O[C@@]1(C)C(F)(F)F [Compound 636] , please.
Result: 10 to 100 nM

###

Biological target: human NaV 1.8 (Homo sapiens, UniProt Q9Y5Y9)
Experiment: E-VIPR assay detecting and measuring NaV inhibition properties
Type: cell-based
Details: HEK cells expressing truncated human NaV 1.8; no human serum; read-out: IC50 in the E-VIPR Assay
Text: Sodium ion channels are voltage-dependent proteins that can be activated by inducing membrane voltage changes by applying electric fields. The electrical stimulation instrument and methods of use, referred to as E-VIPR, are described in International Publication No. WO 2002/008748 A3 and C.-J. Huang et al. Characterization of voltage-gated sodium channel blockers by electrical stimulation and fluorescence detection of membrane potential, 24 Nature Biotech. […]
metric name: IC50

Reference set (4 entries):
Ask: IC50 for COc1c([C@H]2[C@H](C(=O)Nc3ccc4nc(C(=O)N5CCOCC5)cn4c3)O[C@@](C)(C(F)(F)F)[C@H]2C)ccc(F)c1F ?
Result: 0.01 to 0.1 µM

Ask: Same read-out for COc1c([C@H]2[C@H](C(=O)Nc3ccnc(N4CC(N)CC4=O)c3)O[C@@](C)(C(F)(F)F)[C@H]2C)ccc(F)c1F (single isomer, unassigned) [Compound 495] ?
Result: < 0.01 µM

Ask: Can you handle COc1c([C@H]2[C@H](C(=O)Nc3cn(C(F)F)nc3C)O[C@@](C)(C(F)(F)F)[C@H]2C)ccc(F)c1F next?
Result: < 0.01 µM

Ask: Here is the next compound: CNC(=O)c1cn2cc(NC(=O)[C@@H]3O[C@@](C)(C(F)(F)F)[C@@H](C)[C@H]3c3ccc(F)c(F)c3OC)ccc2n1
Result: 0.01 to 0.1 µM

Others:
Ask: Sample Cc1nn(C(F)F)cc1NC(=O)[C@@H]1O[C@@](C)(C(F)(F)F)[C@@H](C)[C@H]1c1ccc(F)c(F)c1OCC(=O)O — what was its IC50?
Result: ≥ 1 µM

Ask: Record: Cc1nocc1NC(=O)[C@@H]1O[C@@](C)(C(F)(F)F)[C@@H](C)[C@H]1c1ccc(F)c(F)c1OCCN1CC(C(F)F)C1
Result: 0.01 to 0.1 µM

###

molecular target: human NaV 1.8 (Homo sapiens, UniProt Q9Y5Y9); assay: E-VIPR assay detecting and measuring NaV inhibition properties; assay type: cell-based; conditions: HEK cells expressing truncated human NaV 1.8; no human serum; read-out: IC50 in the E-VIPR Assay
metric name: IC50

Ask: For C[C@H]1[C@@H](c2ccc(F)c(F)c2OC(F)F)[C@H](C(=O)Nc2cc(S(C)(=O)=O)ccn2)O[C@@]1(C)C(F)(F)F (single isomer, unassigned) [Compound 72] , what is its reported IC50?
Result: 0.01 to 0.1 µM

Ask: Can you check CCOc1c([C@@H]2[C@@H](C(=O)Nc3cncc(S(C)(=O)=O)c3)O[C@](C)(C(F)(F)F)[C@@H]2C)ccc(F)c1F (stereo in doubt) [Compound 106] next?
Result: 0.1 to 1 µM

Ask: // same read-out, input: COc1c([C@H]2[C@H](C(=O)NC3(Cc4ccccc4)CC3)O[C@@](C)(C(F)(F)F)[C@H]2C)ccc(F)c1F [Compound 291]
Result: ≥ 1 µM

Ask: Would you kindly repeat that for COc1c([C@H]2[C@H](C(=O)Nc3cc(O[C@@H]4COC[C@@H]4O)ncn3)O[C@@](C)(C(F)(F)F)[C@H]2C)ccc(F)c1F (relative stereo) [Compound 238] ?
Result: 0.01 to 0.1 µM

Ask: Can you check C[C@H]1[C@@H](c2ccc(F)c(F)c2O)[C@H](C(=O)Nc2ccnc(CO)c2)O[C@@]1(C)C(F)(F)F [Compound 638] next?
Result: 0.01 to 0.1 µM

Attention now shifts to the item below.
Ask: I'd like to know its IC50. The compound in question is COc1c([C@H]2[C@H](C(=O)Nc3ccc(-c4nc(C)no4)nc3)O[C@@](C)(C(F)(F)F)[C@H]2C)ccc(F)c1F [Compound 393]
Result: 0.1 to 1 µM

###

Measured IC50 of individual entries
target: human NaV 1.8 (Homo sapiens, UniProt Q9Y5Y9); assay: E-VIPR assay detecting and measuring NaV inhibition properties; type: cell-based; details: HEK cells expressing truncated human NaV 1.8; no human serum; read-out: IC50 in the E-VIPR Assay

Ask: Which IC50 is reported for this molecule? CCOc1c([C@H]2[C@H](C(=O)Nc3ccnc(S(C)(=O)=O)c3)O[C@@](C)(C(F)(F)F)[C@H]2C)ccc(F)c1F (stereo in doubt)
Result: < 10 nM

Ask: Ok, now [2H]C([2H])([2H])Oc1c([C@H]2[C@H](C(=O)Nc3ccnc(N4CCN(C)CC4=O)c3)O[C@@](C)(C(F)(F)F)[C@H]2C)ccc(F)c1F
Result: < 10 nM
